Sourced from the supplement of paper PMC6555819

# PBM binding z-score values compiled below
Test system: PPARg:RXRa 270nM:90nM, anti-RXR (NR concentration 270 nM, RXRa partner concentration 90 nM)
Assay: PBM binding z-score (relative to random genomic background probes); higher = stronger binding; sequences stand for … in GC…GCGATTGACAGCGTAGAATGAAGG
Answer as a number with no unit attached.

TTACCAAGGTGAGCTGATGTCGTTGATCCAACTC; 0.25
CCGACTGGGGCAAAAGTTACCATACTCAGTACGA; 6.09
ATCTCTAGGTAACCAAGTTCAGTGAGTGCCGAAC; 0.67

Data request: # query: PBM binding z-score of entry TAGCCTAGGTCATTCAGGGGCCAGTAAAGAAAGC
Data returned: 2.56

----------
Tested on: RARb:RXRa (NR concentration 270 nM, RXRa partner concentration 90 nM)
Assay: PBM binding z-score (relative to random genomic background probes); higher = stronger binding; sequences stand for … in GC…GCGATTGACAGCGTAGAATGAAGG
observation_type: PBM binding z-score
Could you keep your reply to the number by itself?

Data request: Short answer please: PBM binding z-score, RARb:RXRa (NR concentration 270 nM, RXRa partner concentration 90 nM), entry GATACAGGGTCAAGGACAGAGTACGCGTATTGAT
Data returned: 4.52

Data request: Next sequence: TCGAGTAGGTTAGGGACATTCAGAATGGCGTCGA
Data returned: 0.661

Data request: // same read-out, input: TAGCCTAGGTCAAATCGGGCCAGTATACGCTATA
Data returned: 3.68

Data request: And then CCTCGGAGGACAGAGGGTCAGAGCTGTCCGCTTT , what is it?
Data returned: 2.22

Data request: Another sequence: GATACAGGGTCAGCTAAAGGCCAGAGTATGGAAA
Data returned: 4.26

Data request: Try CAGCCTAGGTCAGGGTCAGTATAGGAGGAACGTT next.
Data returned: 4.31

Data request: What about TCATATAGGTAAATGCTAGGTCAAAGTCCGATCT ?
Data returned: 1.88

Data request: Now give it for TCTTGTAGATCAATAGAGGTGAAGAAAGTGCGCT too.
Data returned: 0.777

Data request: Another: TCGTGTAGGTTACCAATGGGGCATTCAGCTTTCT
Data returned: 1.31

Data request: Repeat for the following sequence: AGAATGACGTTATTAAGATCAGGGAATTGCGGTC
Data returned: -0.451

Data request: Record: CGTCAAAGTTCAAGGTACCGTAACAGAAAGCAGC
Data returned: 5.08

Data request: Also check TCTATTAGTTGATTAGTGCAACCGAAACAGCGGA
Data returned: 0.332

----------
System: PPARg:RXRa 30nM:10nM, anti-RXR (NR concentration 30 nM, RXRa partner concentration 10 nM)
Experiment: PBM binding z-score (relative to random genomic background probes); higher = stronger binding; sequences stand for … in GC…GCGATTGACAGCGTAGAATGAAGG
Item-by-item account of PBM binding z-score

GCTCGGACGACAAGGTCAGAGCTTTGTCCGTAGA; -0.807
ATCTCTAGGTAGGACTCAGTTCAGTGAAGAACGC; 0.37
ATATGTGGGTTACATCCGGGTCATTCAGGCTATG; 2.02
TTAGCAAGGTGAAGGTCGTTGATCCCTCTGTAGA; 1.18
ATCTCTAGGTAAAAGTTCGGTGAATCCCGAGGAT; 4.88
TCTAGTTGGTAACGGAGGTCACACACGACGGGTA; 3.38
CCTATTAGTTGACCATAAGGACAACCGAAGCTCG; 0.251
CCGACTGGTGCAAAGGTTACCATACTCAGTACGA; 4.73
CCTAGTTGGTCAAGTTCACACACGCTATAGGTAC; 0.803
ACTAGTTGGTCAGCTGAGGTCTCACACAATTCGG; -0.202

Data request: Reported PBM binding z-score, sequence ATCTCTAGGTAAGACTCATTTCAGTGAAGAACGC : ____
Data returned: 0.363

Data request: Also, CCTGCCAGGTCATGGTCAGCTAATCTACAGTATG please.
Data returned: 0.448

Data request: Now try ATCTTTAGGTAAAAGTTCAGTGAATCCCGAGGAT .
Data returned: 6.09

Data request: Would you mind doing CCGACTGGGGCAAAGGTTACCGTACTCAGTACGA as well?
Data returned: 9.56

Data request: Follow-up item: AGAACGAGGGCAATGAGTTGAAAGCACGGGTGGC
Data returned: -0.135

Data request: Ok, now CCTGCTAGGTTATGGTCAGCTAATCTACAGTATG
Data returned: -0.295

Data request: Could you do the same for CAGTCTAGGTCAGGGCCAGTATAGGAGGAACGTT , please?
Data returned: 1

Data request: What about ATATGTAGGTTATCTGGTCATTCAGTTTGCGCAT ?
Data returned: 2.32

Data request: How about CCTACTGGGCCAAAAAGGTCATTGGTGCCGATAA ?
Data returned: 1.19

Data request: Then this sequence: CCGACTGGGGCTTAAGGTTACCATAAGCCAGCCC
Data returned: -0.108

Data request: Could you do the same for GCCTATAGGTAATACAAGGTGAAAGTCCGATTGT , please?
Data returned: 0.0563

Data request: Also TCTCGGAGGACACGAATGGTCAGAGCTCGACATC ?
Data returned: 2.1

----------
Reported PBM binding z-score values are given for each entry in this list.
Tested on: PPARg:RXRa IVT, anti-PPARg (NR concentration 270 nM, RXRa partner concentration 90 nM)
Experiment: PBM binding z-score (relative to random genomic background probes); higher = stronger binding; sequences stand for … in GC…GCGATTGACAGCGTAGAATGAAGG
I'd appreciate a reply containing only the number, no unit.

Example entries and their recorded answers appear below.
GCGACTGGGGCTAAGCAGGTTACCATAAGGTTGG; 0.343
ATCTCTAGGTAAGACTCACTTCAGTGAAGAACGC; 1.19
TGAATGAGGTTATAAAATCAGGGAACGTTGCAAA; 1.47
CCTCCTGGGCCATTCAGAGGTCATTGATCATATG; 1.4
AGTCAAAGTTCACTAGGTAACGTAGGATTCAGCT; 4.99

Data request: Under PPARg:RXRa IVT, anti-PPARg (NR concentration 270 nM, RXRa partner concentration 90 nM): PBM binding z-score value of TTACCAAGGTGAGCTGAGGTCGTTAATCCAACTC ?
Data returned: 1.7

Data request: Moving on to the next sequence: CCTGCTAGCTCATGGTCAGCTAATCTACAGTATG
Data returned: -0.609

Data request: Moving on to the next sequence: ATCGAAAGGTCGAGGTGAGTATGGAGAAAGGGAA
Data returned: 2.45

Data request: Now try AATACAGGGTAATCGTAGGCCAGAGTACGCACAG .
Data returned: 2.19

Data request: Check CAAACTAGGTCAAAGAGGTCAAAGTCCGTGCGTA too.
Data returned: 8.45

Data request: What do you have for CAAACTAGGTCACACAGGTCAAAGTCCGTGCGTA ?
Data returned: 9.19

Data request: How about GCACACAGGTGAAACGCAGGTAACTCAGGGTGGC ?
Data returned: 1.35

----------
Tested on: PPARg:RXRa IVT, anti-PPARg (NR concentration 270 nM, RXRa partner concentration 90 nM)
Test: PBM binding z-score (relative to random genomic background probes); higher = stronger binding; sequences stand for … in GC…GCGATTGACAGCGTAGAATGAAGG
PBM binding z-score reference
The answer should be a number; do not append a unit.

Examples with their reported PBM binding z-score follow.
CCTACTGGTCCATCAGGTCATTGATATCAACGTT; 1.32
CGAACTAGGTCAGTACAGGACAGTGAAGGATGAT; 7.01
TCATATAGGTAAATGTTAGGTGAAAGTCCGATCT; 2.63
CAAACTAGGTCAAGGTCAAAGTTGGTTTGTGCCA; 8.73
TCATATAGGTAAACAGGTGAAAGACCGTAAGTTA; 4.63

Read the next record carefully.
Data request: # lookup: PBM binding z-score of CCTTACGGATCAAGGTTATAGCACGGGTGGTACG
Data returned: 0.0573

----------
System: RXRa homodimer (NR concentration 180 nM)
Assay: PBM binding z-score (relative to random genomic background probes); higher = stronger binding; sequences stand for … in GC…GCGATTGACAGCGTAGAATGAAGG
Readings of PBM binding z-score for the listed sequences
Reply with the value as a number alone.

Guide cases for PBM binding z-score, answers given:
ATCTCTAGGTAAAGATAGTCCAGTGAATGCAAAT; 0.108
TAGCCTAGGTCATGCGGTCCAGTATAGTGTCGGC; 2.94
TCTATTATTTGATTAGGGCAACCGAAACAGCGGA; 0.751
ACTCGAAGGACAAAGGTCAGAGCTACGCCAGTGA; 4.69
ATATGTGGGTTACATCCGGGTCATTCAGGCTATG; 3.17

Next sequence, PBM binding z-score to be filled in.
Data request: Any idea what PBM binding z-score came out for GCGAGTTGGTCAGTAAAAGGTCACACACCGGTCG on RXRa homodimer (NR concentration 180 nM)?
Data returned: 5.54
